- targetSystem: wild-type Androgen Receptor (AR-wt) (Homo sapiens, UniProt P10275)
- Construct: expressed in transfected cells; host or cells: LNCaP
- Sequence (P10275 1-920): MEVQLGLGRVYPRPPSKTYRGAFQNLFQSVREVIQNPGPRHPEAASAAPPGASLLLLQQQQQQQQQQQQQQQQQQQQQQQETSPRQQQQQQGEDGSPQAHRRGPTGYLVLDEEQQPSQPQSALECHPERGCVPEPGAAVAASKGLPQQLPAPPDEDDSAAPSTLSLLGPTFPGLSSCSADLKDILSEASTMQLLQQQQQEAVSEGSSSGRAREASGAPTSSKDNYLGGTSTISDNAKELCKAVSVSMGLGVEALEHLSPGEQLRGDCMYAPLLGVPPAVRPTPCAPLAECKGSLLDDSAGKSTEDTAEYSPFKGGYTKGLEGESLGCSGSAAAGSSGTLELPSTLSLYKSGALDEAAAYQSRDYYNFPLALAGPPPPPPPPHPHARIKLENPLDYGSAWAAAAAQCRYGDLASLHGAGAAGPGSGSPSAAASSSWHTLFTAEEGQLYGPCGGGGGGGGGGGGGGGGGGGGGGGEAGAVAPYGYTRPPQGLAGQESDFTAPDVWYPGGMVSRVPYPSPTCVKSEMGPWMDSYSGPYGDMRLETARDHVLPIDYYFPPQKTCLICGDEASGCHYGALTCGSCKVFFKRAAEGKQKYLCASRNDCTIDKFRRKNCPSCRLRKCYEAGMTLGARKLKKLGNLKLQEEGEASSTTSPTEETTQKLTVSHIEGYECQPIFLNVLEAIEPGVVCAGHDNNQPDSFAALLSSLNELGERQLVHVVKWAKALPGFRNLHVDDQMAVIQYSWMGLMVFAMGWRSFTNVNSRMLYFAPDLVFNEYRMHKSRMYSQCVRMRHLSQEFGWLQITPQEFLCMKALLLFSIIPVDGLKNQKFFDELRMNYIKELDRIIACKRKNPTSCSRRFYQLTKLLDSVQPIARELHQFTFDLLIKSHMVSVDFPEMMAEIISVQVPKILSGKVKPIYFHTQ
- assayExplanation: AR reporter assay, LNCaP-AR-wt ANT (antagonist mode)
- Type: cell-based
Where a name gives a salt, the structure may show the parent alone.
Recorded IC50 by entry
assayEndpoint: IC50 (nM)

1. CN1CCC(Oc2ccc(N3C(=S)N(c4ccc(C#N)c(Cl)c4)C(=O)C3(C)C)cn2)CC1 [Compound 10, hydrochloride]    63.1
2. CC1(C)C(=O)N(c2ccc(C#N)c(C(F)(F)F)c2)C(=S)N1c1cnc(OC2CCNCC2)nc1 [Compound 5]    170
3. CN1CCC(Oc2ncc(N3C(=S)N(c4ccc(C#N)c(C(F)(F)F)c4)C(=O)C3(C)C)cn2)CC1 [Compound 6]    91.2
4. CC1(C)C(=O)N(c2ccc(C#N)c(Cl)c2)C(=S)N1c1ccc(OC2CCNCC2)nc1 [Compound 9, hydrochloride]    57.5

----------
- System: VCaP cells
- assayExplanation: Prostate Cancer Cell Viability Assay-VCaP
- Format: cell-based
- conditionNotes: Homo sapiens, 120 h, 10% Charcoal Stripped Serum, 5 days, CellTiter-Glo, * n = 1
- Procedure: VCaP cells were counted and seeded into black 384-well plates with clear bottoms at a concentration of 125,000 cells per mL in phenol red-free DMEM containing 10% Charcoal Stripped Serum. […] After 5 days of incubation at 37° C., 16 μL Of CellTiter-Glo (Promega) was added to the cells and the relative luminescence units (RLUs) of each well determined using the Envision. The percent stimulation and % inhibition were determined for each sample and plotted using GraphPad Prism.
pIC50: −log10 of the molar value. Where a name gives a salt, the structure may show the parent alone.
assayEndpoint: pIC50

1. N#Cc1ccc(N2C(=O)C3(CCC3)N(c3ccc(OC4CCNCC4)nc3)C2=S)cc1Cl [Compound 23, hydrochloride]    6.27
2. COc1cc(N2C(=O)C3(CCC3)N(c3ccc(OC4CCN(C)CC4)nc3)C2=S)ccc1C#N    5.85
3. CN1CCC(Oc2ncc(N3C(=S)N(c4ccc(C#N)c(C(F)(F)F)c4)C(=O)C3(C)C)cn2)CC1    4.74
4. CN1CCC(Oc2ccc(N3C(=S)N(c4ccc(C#N)c(Cl)c4)C(=O)C3(C)C)cn2)CC1 [Compound 10, hydrochloride]    5.26
5. CN1CCC(Oc2ccc(N3C(=S)N(c4ccc(C#N)c(Cl)c4)C(=O)C3(C)C)cc2)CC1 [Compound 8, hydrochloride]    5.46
6. CN1CCC(Oc2ccc(N3C(=S)N(c4ccc(C#N)c(C(F)(F)F)c4)C(=O)C3(C)C)cn2)CC1 [Compound 4, hydrochloride]    5.78
7. CN1CCC(Oc2ncc(N3C(=S)N(c4ccc(C#N)c(C(F)(F)F)c4)C(=O)C34CCC4)cn2)CC1    5.28
